biological target: hexokinase 1 [Trypanosoma brucei]; experiment: TbHK1 enzyme inhibition, concentration series – biochemical, IC50, dose response (AID 1632); settings: recombinant TbHK1 enzyme assay, absorbance read-out; inhibition; at 100 µM; stronger effect = higher value
Inconclusive results are not listed.
Readout label: inhibition (%)

>  <Molecule>
COC(=O)c1ccccc1NC(=O)CCS(=O)(=O)c1ccc(Br)cc1

>  <Obs value>
71.7

$$$$
>  <Molecule>
Cc1ccccc1-n1sc2cc(F)ccc2c1=O

>  <Obs value>
87.8

$$$$
>  <Molecule>
CCOC(=O)Cc1csc(-n2sc3ccccc3c2=O)n1

>  <Obs value>
46.9

$$$$
>  <Molecule>
COc1ccc(C(=O)Nc2cc(Cl)ccc2C(=O)O)cc1

>  <Obs value>
75.7

$$$$
>  <Molecule>
O=C(Cn1sc2ccccc2c1=O)NC12CC3CC(CC(C3)C1)C2

>  <Obs value>
74.6

$$$$
>  <Molecule>
O=C(O)CCCCC1CCSS1 (stereo unspecified)

>  <Obs value>
96.4

$$$$
